Test Readout: Ki (nM)
Lab book: enter the figure in nM, no units written.

### Prompt Enter recorded Ki with 5-hydroxytryptamine receptor 2A (Homo sapiens) for O=C1CC(CN2CCC(C(=O)c3ccc(F)cc3)CC2)Cc2nc(-c3ccccc3)ncc21 (centres undefined) here.
Sequence (P28223 whole entry): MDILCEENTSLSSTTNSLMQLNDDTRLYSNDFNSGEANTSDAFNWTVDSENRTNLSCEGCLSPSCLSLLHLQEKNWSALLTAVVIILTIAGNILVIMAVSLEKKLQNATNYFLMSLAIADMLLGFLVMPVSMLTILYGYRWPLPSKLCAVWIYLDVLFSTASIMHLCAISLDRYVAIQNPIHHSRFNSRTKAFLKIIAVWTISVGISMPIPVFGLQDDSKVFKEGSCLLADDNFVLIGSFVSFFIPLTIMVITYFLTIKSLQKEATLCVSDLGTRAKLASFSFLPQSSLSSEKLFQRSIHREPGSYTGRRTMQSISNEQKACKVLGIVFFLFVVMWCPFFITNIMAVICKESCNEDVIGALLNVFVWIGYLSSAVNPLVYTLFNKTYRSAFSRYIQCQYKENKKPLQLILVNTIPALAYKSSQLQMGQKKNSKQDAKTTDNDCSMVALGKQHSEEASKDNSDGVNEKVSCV
### Response 631

### Prompt Enter recorded Ki with 5-hydroxytryptamine receptor 2A (Homo sapiens) for CSc1ncc2c(n1)CC(CN1CCC(C(=O)c3ccc(F)cc3)CC1)CC2=O (centres undefined) here.
### Response 102

### Prompt Enter recorded Ki with 5-hydroxytryptamine receptor 2A (Homo sapiens) for CNc1ncc2c(n1)CC(CN1CCC(C(=O)c3ccc(F)cc3)CC1)CC2=O (centres undefined) here.
### Response 6.46

### Prompt Enter recorded Ki with 5-hydroxytryptamine receptor 2A (Homo sapiens) for O=C1CC(CN2CCC(c3noc4cc(F)ccc34)CC2)Cc2ncncc21 (centres undefined) here.
### Response 23.4
